Data origin, for the record: paper PMC3569657

molecular target: WT-I2PP2A/SET-GFP (Homo sapiens, UniProt Q01105); test: anti-GFP pull-down from A549 cells, protein-bound endogenous lipids by LC/MS/MS; type: binding; details: compared to the K209D-I2PP2A/SET (so in the source)
Sequence (Q01105 1-277 isoform Q01105-2): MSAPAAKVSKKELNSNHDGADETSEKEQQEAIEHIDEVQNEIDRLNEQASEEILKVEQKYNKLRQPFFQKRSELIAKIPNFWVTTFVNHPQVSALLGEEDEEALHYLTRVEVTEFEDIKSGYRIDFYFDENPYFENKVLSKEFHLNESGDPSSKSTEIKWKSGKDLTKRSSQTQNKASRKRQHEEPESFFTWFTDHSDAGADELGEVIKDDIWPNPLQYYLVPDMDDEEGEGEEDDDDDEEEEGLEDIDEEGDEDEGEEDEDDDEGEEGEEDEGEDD
measured_endpoint: binding of WT-I2PP2A/SET to ceramide, fold (fold)

1) CCCCCCCCCCCCC/C=C/[C@@H](O)[C@H](CO)NC(=O)CCCCCCCCCCCCCCCCCCC [C20] ... 1.9
2) CCCCCCCCCCCCC/C=C/[C@@H](O)[C@H](CO)NC(=O)CCCCCCCCCCCCCCCCCCCCCCC [C24] ... 2.1
3) CCCCCCCCCCCCC/C=C/[C@@H](O)[C@H](CO)NC(=O)CCCCCCCCCCCCCCCCCCCCC [C22] ... 2.6
4) CCCCCCCCCCCCC/C=C/[C@@H](O)[C@H](CO)NC(=O)CCCCCCCCCCCCCCCCCCCCCCCCC [C26] ... 2.5
